experiment: Ataluren glucuronidation kinetics, human kidney microsomes; assay type: in vitro ADME; settings: human, pooled human kidney microsomes, pH 7.5, HKM, 0.5% BSA; read-out: CLint,u,UGT
Measure: microsomal CLint (µL/min/mg)

{"Compound": "O=C(O)c1cccc(-c2noc(-c3ccccc3F)n2)c1 [ataluren, Ataluren]", "Measure": "microsomal CLint", "Recorded number": 952}

----------
system: CYP3A4/5; test: CYP inhibition in pooled human liver microsomes: CYP3A4/5; assay type: in vitro ADME; conditions: pH 7.4, probe midazolam (1′-hydroxylation), Midazolam 1′-hydroxylase, pooled HLM, n=3

{"Molecular string": "O=C(O)c1cccc(-c2noc(-c3ccccc3F)n2)c1", "IC50": "> 400 µM"}

----------
assay: Plasma protein binding (ultrafiltration), mouse; type: in vitro ADME; conditions: male, C57/BL10, 50 to 50 000 ng/mL, mean ± SD, n = 3, read-out: percentage protein binding (converted)

{"Molecular string": "O=C(O)c1cccc(-c2noc(-c3ccccc3F)n2)c1", "fraction unbound at 15 min": 0.016}

----------
biological target: UGT1A9 (Homo sapiens, UniProt O60656); construct: purchased BD Biosciences; host or cells: baculovirus-infected insect cells; test: Ataluren glucuronidation kinetics, recombinant human UGT1A9; type: in vitro ADME; conditions: human, recombinant human UGT1A9 incubation mixture, pH 7.5, UGT1A9, 2% BSA, mean ± SD, n = 3; read-out: fu,inc
Measure: fraction unbound at 15 min

{"Molecular string": "O=C(O)c1cccc(-c2noc(-c3ccccc3F)n2)c1", "Recorded number": 0.035}

----------
assay: Ataluren glucuronidation kinetics, human intestinal microsomes; assay type: in vitro ADME; conditions: human, pooled human intestinal microsomes, pH 7.5, HIM, 1% BSA; read-out: CLint,u,UGT
Measure: microsomal CLint

{"Molecule": "O=C(O)c1cccc(-c2noc(-c3ccccc3F)n2)c1 [ataluren, Ataluren]", "Result": "177 µL/min/mg"}

----------
target: CYP2C9 (Homo sapiens, UniProt P11712)
Sequence (P11712 whole entry): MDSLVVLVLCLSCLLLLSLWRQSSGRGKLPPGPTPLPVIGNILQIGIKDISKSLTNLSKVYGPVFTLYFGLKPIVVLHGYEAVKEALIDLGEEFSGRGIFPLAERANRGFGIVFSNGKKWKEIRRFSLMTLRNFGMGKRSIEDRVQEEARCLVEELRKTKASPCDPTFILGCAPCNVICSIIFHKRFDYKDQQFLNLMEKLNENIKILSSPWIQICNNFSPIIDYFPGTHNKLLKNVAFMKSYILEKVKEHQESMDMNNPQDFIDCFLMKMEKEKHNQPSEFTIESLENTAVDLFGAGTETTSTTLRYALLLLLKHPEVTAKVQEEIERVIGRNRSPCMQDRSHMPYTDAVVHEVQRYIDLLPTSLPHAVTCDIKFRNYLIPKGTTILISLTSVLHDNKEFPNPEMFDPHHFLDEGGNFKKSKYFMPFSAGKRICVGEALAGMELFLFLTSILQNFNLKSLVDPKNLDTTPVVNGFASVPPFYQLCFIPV
pKi: −log10 of the molar value.

{"Molecular string": "O=C(O)c1cccc(-c2noc(-c3ccccc3F)n2)c1", "pKi": 4.12}

----------
system: UGT (glucuronidation); experiment: Ataluren glucuronidation kinetics, human kidney microsomes; format: in vitro ADME; settings: human, pooled human kidney microsomes, pH 7.5, HKM, 0% BSA; read-out: CLint,u,UGT
Measure: microsomal CLint (µL/min/mg)

{"Molecular string": "O=C(O)c1cccc(-c2noc(-c3ccccc3F)n2)c1", "Measurement units": "µL/min/mg", "Recorded number": 324}

----------
assay: Plasma protein binding (ultrafiltration), human; format: in vitro ADME; settings: male, 50 to 50 000 ng/mL, mean ± SD, n = 3, read-out: percentage protein binding (converted)
Measure: fraction unbound at 15 min

{"Molecular string": "O=C(O)c1cccc(-c2noc(-c3ccccc3F)n2)c1", "Measure": "fraction unbound at 15 min", "Result": 0.004}

----------
test system: UGT (glucuronidation); assay: Ataluren glucuronidation kinetics, human liver microsomes; format: in vitro ADME; details: human, pooled human liver microsomes, pH 7.5, HLM, 0.5% BSA; read-out: CLint,u,UGT

{"Molecular string": "O=C(O)c1cccc(-c2noc(-c3ccccc3F)n2)c1", "Measurement units": "µL/min/mg", "microsomal CLint": 326}

----------
assay: Ataluren glucuronidation kinetics, human kidney microsomes; type: in vitro ADME; conditions: human, pooled human kidney microsomes incubation mixture, pH 7.5, HKM, 0% BSA, mean ± SD, n = 3; read-out: fu,inc

{"Molecule": "O=C(O)c1cccc(-c2noc(-c3ccccc3F)n2)c1 [ataluren, Ataluren]", "fraction unbound at 15 min": 1}

----------
molecular target: CYP2C9 (Homo sapiens, UniProt P11712); construct: tissue XenoTech LLC, Celsis-In Vitro Technologies, or Tissue Transformation Technologies; host or cells: pooled human liver microsomes; experiment: CYP inhibition in pooled human liver microsomes: CYP2C9; type: in vitro ADME; conditions: Diclofenac 4′-hydroxylase, pooled HLM, n=3, (95% confidence interval)
pIC50: −log10 of the molar value.

{"Compound": "O=C(O)c1cccc(-c2noc(-c3ccccc3F)n2)c1 [ataluren, Ataluren]", "pIC50": 3.87}

----------
target: CYP2D6 (Homo sapiens, UniProt P10635)
Sequence (P10635 whole entry): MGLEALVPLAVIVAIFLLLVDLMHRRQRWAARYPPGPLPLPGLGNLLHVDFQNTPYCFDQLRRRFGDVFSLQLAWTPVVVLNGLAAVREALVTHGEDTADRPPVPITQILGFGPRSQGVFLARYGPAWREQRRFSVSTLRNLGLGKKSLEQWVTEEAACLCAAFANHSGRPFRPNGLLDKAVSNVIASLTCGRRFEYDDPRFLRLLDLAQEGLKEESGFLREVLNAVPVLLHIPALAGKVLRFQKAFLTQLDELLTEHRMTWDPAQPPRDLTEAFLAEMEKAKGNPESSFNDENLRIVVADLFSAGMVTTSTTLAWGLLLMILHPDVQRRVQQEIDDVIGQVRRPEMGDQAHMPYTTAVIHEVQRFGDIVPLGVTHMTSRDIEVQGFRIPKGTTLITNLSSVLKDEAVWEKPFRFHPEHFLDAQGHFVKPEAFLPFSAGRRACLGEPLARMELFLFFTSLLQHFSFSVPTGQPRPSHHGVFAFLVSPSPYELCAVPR
pIC50: −log10 of the molar value.
Measure: pIC50

{"Molecular string": "O=C(O)c1cccc(-c2noc(-c3ccccc3F)n2)c1", "Assay target": "CYP2D6 (Homo sapiens, UniProt P10635)", "Result": "< 3.40"}

----------
Experiment: Ataluren glucuronidation kinetics, human intestinal microsomes
Assay type: in vitro ADME
Conditions: human, pooled human intestinal microsomes, pH 7.5, HIM, 2% BSA; read-out: CLint,u,UGT
Method: Ataluren at 0.5, 2.5, 12.5, 25, 50, 100, 200, and 400 µmol/L, was incubated (n = 3) at 37°C with recombinant human UGT1A9 and with pooled microsomes from human liver, kidney, and intestine (0.025 mg protein/mL, preactivated with alamethicin at 20 µg/mL) in Tris‐HCl buffer (0.1 mol/L, pH 7.5), in the presence of 1 mmol/L EDTA, 5 mmol/L MgCl2, with or without 0.5%, 1%, or 2% BSA. […] The filtrates were used for LC‐MS/MS analysis to quantify the formation of ataluren‐O‐1β‐acyl glucuronide. […]

{"Molecule": "O=C(O)c1cccc(-c2noc(-c3ccccc3F)n2)c1 [ataluren, Ataluren]", "Measurement units": "µL/min/mg", "microsomal CLint": 164}

----------
assay: Ataluren glucuronidation kinetics, human intestinal microsomes; format: in vitro ADME; conditions: human, pooled human intestinal microsomes incubation mixture, pH 7.5, HIM, 0.5% BSA, mean ± SD, n = 3; read-out: fu,inc
Measure: fraction unbound at 15 min

{"Molecular string": "O=C(O)c1cccc(-c2noc(-c3ccccc3F)n2)c1", "Measure": "fraction unbound at 15 min", "Recorded number": 0.1}

----------
Molecular target: UGT1A9 (Homo sapiens, UniProt O60656)
Construct: purchased BD Biosciences; host or cells: baculovirus-infected insect cells
Sequence (O60656 26-530): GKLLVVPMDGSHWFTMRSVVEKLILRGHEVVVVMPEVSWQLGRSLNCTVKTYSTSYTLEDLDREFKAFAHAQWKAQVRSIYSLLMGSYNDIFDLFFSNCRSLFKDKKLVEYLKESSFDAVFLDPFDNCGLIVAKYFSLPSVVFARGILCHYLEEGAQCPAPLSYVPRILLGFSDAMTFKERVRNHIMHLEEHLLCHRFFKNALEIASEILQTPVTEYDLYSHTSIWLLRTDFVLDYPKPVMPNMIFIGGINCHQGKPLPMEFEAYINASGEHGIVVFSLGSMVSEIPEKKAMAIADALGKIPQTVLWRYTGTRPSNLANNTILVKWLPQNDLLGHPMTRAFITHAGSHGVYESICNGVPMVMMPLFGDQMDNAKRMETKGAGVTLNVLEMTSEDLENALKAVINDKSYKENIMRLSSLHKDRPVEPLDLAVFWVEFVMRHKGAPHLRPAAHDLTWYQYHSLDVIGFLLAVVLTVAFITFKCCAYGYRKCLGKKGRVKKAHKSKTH
Assay: Ataluren glucuronidation kinetics, recombinant human UGT1A9
Type: in vitro ADME
Conditions: human, recombinant human UGT1A9, pH 7.5, UGT1A9, 0% BSA; read-out: CLint,u,UGT

{"Molecular string": "O=C(O)c1cccc(-c2noc(-c3ccccc3F)n2)c1", "Measurement units": "µL/min/mg", "microsomal CLint": 222}

----------
Biological target: UGT1A9 (Homo sapiens, UniProt O60656)
Construct: purchased BD Biosciences; host or cells: baculovirus-infected insect cells
Sequence (O60656 26-530): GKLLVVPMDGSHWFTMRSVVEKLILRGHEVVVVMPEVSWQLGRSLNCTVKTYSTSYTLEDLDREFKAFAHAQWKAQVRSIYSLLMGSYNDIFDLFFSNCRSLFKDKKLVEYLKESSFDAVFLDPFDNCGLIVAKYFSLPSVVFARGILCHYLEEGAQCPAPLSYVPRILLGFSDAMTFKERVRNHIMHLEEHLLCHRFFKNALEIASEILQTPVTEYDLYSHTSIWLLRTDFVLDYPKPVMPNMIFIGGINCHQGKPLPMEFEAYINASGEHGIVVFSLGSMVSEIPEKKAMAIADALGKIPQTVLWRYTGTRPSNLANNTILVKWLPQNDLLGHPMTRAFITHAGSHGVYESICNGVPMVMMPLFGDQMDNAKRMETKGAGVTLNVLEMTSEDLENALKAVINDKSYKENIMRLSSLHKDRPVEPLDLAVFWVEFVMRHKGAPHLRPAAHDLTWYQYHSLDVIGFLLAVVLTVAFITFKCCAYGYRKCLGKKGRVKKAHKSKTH
Assay: Ataluren glucuronidation kinetics, recombinant human UGT1A9
Format: in vitro ADME
Conditions: human, recombinant human UGT1A9, pH 7.5, UGT1A9, 0.5% BSA; read-out: CLint,u,UGT

{"Molecular string": "O=C(O)c1cccc(-c2noc(-c3ccccc3F)n2)c1", "Measurement units": "µL/min/mg", "microsomal CLint": 277}

Values were extracted from paper PMC7083565.
